# Tested on: ketose 3-epimerase
# experiment_notes: Substrate specificity of ketose 3-epimerase (epimer content by HPLC)
# Format: biochemical, Rhizobium leguminosarum ATCC14480
# Experimental: By using the purified preparation of the ketose 3-epimerase, obtained by the method in Experiment 2, the substrate specificity of the enzyme was investigated using various D- or L-ketohexoses and D- or L-ketopentoses as substrates. […] After stopping the reaction by keeping the reaction mixture at 100° C. for 10 min, the content of epimer formed from each substrate was measured using high performance liquid chromatography (hereinafter, abbreviated as “HPLC”). […]
attribute_measured: Action of the ketose 3-epimerase on the substrate (in words)

                      structure_string              result
0  O=C(CO)[C@@H](O)[C@@H](O)[C@H](O)CO  slightly catalyzed
1   O=C(CO)[C@H](O)[C@@H](O)[C@H](O)CO  slightly catalyzed
